system: B. cereus NCTC 7464
quantity: MIC

Below, 5 compounds whose answers are already recorded.
Task item: Recorded MIC for NNC(=O)c1ccncc1 with B. cereus NCTC 7464, please?
Reply: > 32 µg/mL

Task item: Recorded MIC for CC[C@@H](CO)NCCN[C@@H](CC)CO with B. cereus NCTC 7464, please?
Reply: > 32 µg/mL

Task item: Recorded MIC for CC(C)=CCC/C(C)=C/CNCCNC1C2CC3CC(C2)CC1C3 (stereo not drawn) with B. cereus NCTC 7464, please?
Reply: > 32 µg/mL

Task item: Recorded MIC for CC(C)CCOc1ccc(NC(=S)Nc2ccc(OCCC(C)C)cc2)cc1 with B. cereus NCTC 7464, please?
Reply: > 32 µg/mL

Task item: Recorded MIC for CC(=O)NC[C@H]1CN(c2ccc(N3CCOCC3)c(F)c2)C(=O)O1 with B. cereus NCTC 7464, please?
Reply: 1.75 µg/mL

More entries:
Task item: Recorded MIC for CC(C)CCOc1ccc(NC(=S)NC23CC4CC(CC(C4)C2)C3)cc1 with B. cereus NCTC 7464, please?
Reply: > 32 µg/mL

Task item: Recorded MIC for CO[C@H]1/C=C/O[C@@]2(C)Oc3c(C)c(O)c4c(O)c(c(/C=N/N5CCN(C)CC5)c(O)c4c3C2=O)NC(=O)/C(C)=C\C=C\[C@H](C)[C@H](O)[C@@H](C)[C@@H](O)[C@@H](C)[C@H](OC(C)=O)[C@@H]1C with B. cereus NCTC 7464, please?
Reply: 0.045 µg/mL

Task item: Recorded MIC for CCc1cc(C(N)=S)ccn1 [ETH, ethionamide] with B. cereus NCTC 7464, please?
Reply: > 32 µg/mL

Task item: Recorded MIC for CC(C)CCOc1ccc(NC(=S)NC2C3CC4CC(C3)CC2C4)cc1 (stereo not drawn) with B. cereus NCTC 7464, please?
Reply: > 32 µg/mL

* * *

test system: RAW264.7 murine macrophage cells; experiment: cells; format: cell-based; details: Mus musculus, RAW264.7, 96 h, RAW264.7 macrophage; 100 µM; 96 h; read-out: MTS percentage survival @ 100 µM
quantity: viability at 100 µM (%)
State just the number; it will be interpreted in %.

Below, 6 molecules whose answers are already recorded.
Task item: Using the record for CC[C@@H](CO)NCCN[C@@H](CC)CO [EMB, Ethambutol] , report its viability at 100 µM.
Reply: 88.5

Task item: Using the record for CC(C)=CCC/C(C)=C/CNCCNC1C2CC3CC(C2)CC1C3 (centres unmarked) [SQ109] , report its viability at 100 µM.
Reply: 61.1

Task item: Using the record for CO[C@H]1/C=C/O[C@@]2(C)Oc3c(C)c(O)c4c(O)c(c(/C=N/N5CCN(C)CC5)c(O)c4c3C2=O)NC(=O)/C(C)=C\C=C\[C@H](C)[C@H](O)[C@@H](C)[C@@H](O)[C@@H](C)[C@H](OC(C)=O)[C@@H]1C [RIF, rifampicin] , report its viability at 100 µM.
Reply: 66.3

Task item: Using the record for CC(C)CCOc1ccc(NC(=S)Nc2ccc(OCCC(C)C)cc2)cc1 [ISO, 4,4′-diisoamyloxydiphenylthiourea] , report its viability at 100 µM.
Reply: 34.5

Task item: Using the record for CC(=O)NC[C@H]1CN(c2ccc(N3CCOCC3)c(F)c2)C(=O)O1 [LZD, linezolid] , report its viability at 100 µM.
Reply: 38.3

Task item: Using the record for CC(C)CCOc1ccc(NC(=S)NC2C3CC4CC(C3)CC2C4)cc1 (centres unmarked) [Ad-2-ISO] , report its viability at 100 µM.
Reply: 22.5

More entries:
Task item: Using the record for NNC(=O)c1ccncc1 [INH, isoniazid] , report its viability at 100 µM.
Reply: 96.3

Task item: Using the record for CC(C)CCOc1ccc(NC(=S)NC23CC4CC(CC(C4)C2)C3)cc1 [Ad-1-ISO] , report its viability at 100 µM.
Reply: 73.8
